Origin of values: patent US20110079773A1

- ASSAY_COMMENT: Electrochemistry (redox potentials)
- Format: physicochemical
- CONDITION_LABEL: shift versus unsubstituted parent
PROPERTY_MEASURED: Reduction potential more negative than that of parent compound

{"COMPOUND": "CCCCC(CC)CN1C(=O)c2c(CCc3ccccc3)cc3c4ccc5c6cc(CCc7ccccc7)c7c8c(c(CCc9ccccc9)cc(c9ccc(c%10cc(CCc%11ccccc%11)c(c2c3%10)C1=O)c4c59)c86)C(=O)N(CC(CC)CCCC)C7=O (centres unmarked)", "ASSAY_VALUE": "~200 mV"}
{"COMPOUND": "CCCCCCCCN1C(=O)c2c(CCc3ccccc3)ccc3ccc(CCc4ccccc4)c(c23)C1=O", "ASSAY_VALUE": "approximately 130 mV"}
{"COMPOUND": "CCCCCCCCN1C(=O)c2c(CCc3ccccc3)cc3c4cc(CCc5ccccc5)c5c6c(c(CCc7ccccc7)cc(c7cc(CCc8ccccc8)c(c2c37)C1=O)c64)C(=O)N(CCCCCCCC)C5=O", "ASSAY_VALUE": "~200 mV"}
{"COMPOUND": "CCCCC(CC)CN1C(=O)c2c(CCc3ccccc3)cc3c4cccc5cccc(c6cc(CCc7ccccc7)c(c2c36)C1=O)c54 (centres unmarked)", "ASSAY_VALUE": "approximately 130 mV"}
{"COMPOUND": "CCCCCCCCN1C(=O)c2cc(CCc3ccccc3)c3c4c(c(CCc5ccccc5)cc(c24)C1=O)C(=O)N(CCCCCCCC)C3=O", "ASSAY_VALUE": "approximately 130 mV"}

----------
- ASSAY_COMMENT: Steady-state electronic absorption and fluorescence spectroscopy
- Type: physicochemical
- CONDITION_LABEL: fluorescence emission maximum, toluene

{"COMPOUND": "CCCCCCCCN1C(=O)c2c(CCc3ccccc3)ccc3ccc(CCc4ccccc4)c(c23)C1=O", "λem": "394^ nm"}
{"COMPOUND": "CCCCCCCCN1C(=O)c2cc(CCc3ccccc3)c3c4c(c(CCc5ccccc5)cc(c24)C1=O)C(=O)N(CCCCCCCC)C3=O", "λem": "415^ nm"}
{"COMPOUND": "CCCCC(CC)CN1C(=O)c2c(CCc3ccccc3)cc3c4cccc5cccc(c6cc(CCc7ccccc7)c(c2c36)C1=O)c54 (stereo not drawn)", "λem": "521^ nm"}

----------
Each item that follows carries a reported λmax.
- ASSAY_COMMENT: Steady-state electronic absorption and fluorescence spectroscopy
- Format: physicochemical
- CONDITION_LABEL: UV-vis absorption in toluene
PROPERTY_MEASURED: λmax (nm)

{"COMPOUND": "CCCCCCCCN1C(=O)c2cc(CCc3ccccc3)c3c4c(c(CCc5ccccc5)cc(c24)C1=O)C(=O)N(CCCCCCCC)C3=O", "ASSAY_VALUE": 390}
{"COMPOUND": "CCCCC(CC)CN1C(=O)c2c(CCc3ccccc3)cc3c4cccc5cccc(c6cc(CCc7ccccc7)c(c2c36)C1=O)c54 (centres unmarked)", "ASSAY_VALUE": 501}
{"COMPOUND": "CCCCCCCCN1C(=O)c2c(CCc3ccccc3)cc3c4cc(CCc5ccccc5)c5c6c(c(CCc7ccccc7)cc(c7cc(CCc8ccccc8)c(c2c37)C1=O)c64)C(=O)N(CCCCCCCC)C5=O", "ASSAY_VALUE": 525}
{"COMPOUND": "CCCCCCCCN1C(=O)c2c(CCc3ccccc3)ccc3ccc(CCc4ccccc4)c(c23)C1=O", "ASSAY_VALUE": 353}
{"COMPOUND": "CCCCC(CC)CN1C(=O)c2c(CCc3ccccc3)cc3c4ccc5c6cc(CCc7ccccc7)c7c8c(c(CCc9ccccc9)cc(c9ccc(c%10cc(CCc%11ccccc%11)c(c2c3%10)C1=O)c4c59)c86)C(=O)N(CC(CC)CCCC)C7=O (centres unmarked)", "ASSAY_VALUE": 649}

----------
- ASSAY_COMMENT: Steady-state electronic absorption and fluorescence spectroscopy
- Format: physicochemical
- CONDITION_LABEL: fluorescence emission maximum, toluene
Each item that follows carries a reported λem.
PROPERTY_MEASURED: λem

{"MOLECULE": "CCCCCCCCN1C(=O)c2c(CCc3ccccc3)cc3c4cc(CCc5ccccc5)c5c6c(c(CCc7ccccc7)cc(c7cc(CCc8ccccc8)c(c2c37)C1=O)c64)C(=O)N(CCCCCCCC)C5=O", "PROPERTY_MEASURED": "λem", "ASSAY_VALUE": "533^ nm"}
{"MOLECULE": "CCCCC(CC)CN1C(=O)c2c(CCc3ccccc3)cc3c4ccc5c6cc(CCc7ccccc7)c7c8c(c(CCc9ccccc9)cc(c9ccc(c%10cc(CCc%11ccccc%11)c(c2c3%10)C1=O)c4c59)c86)C(=O)N(CC(CC)CCCC)C7=O (centres unmarked)", "PROPERTY_MEASURED": "λem", "ASSAY_VALUE": "661^ nm"}

----------
- ASSAY_COMMENT: Electrochemistry (redox potentials)
- Type: physicochemical
- CONDITION_LABEL: first reduction potential; dichloromethane, 0.1 M TBAPF6; Fc/Fc+ (0.46 V vs. SCE) internal standard
Each item that follows carries a reported E^−1/2.

{"COMPOUND": "CCCCC(CC)CN1C(=O)c2c(CCc3ccccc3)cc3c4ccc5c6cc(CCc7ccccc7)c7c8c(c(CCc9ccccc9)cc(c9ccc(c%10cc(CCc%11ccccc%11)c(c2c3%10)C1=O)c4c59)c86)C(=O)N(CC(CC)CCCC)C7=O (stereo not shown) [Compound 10]", "E^−1/2": "−0.83^"}
{"COMPOUND": "CCCCC(CC)CN1C(=O)c2c(CCc3ccccc3)cc3c4cccc5cccc(c6cc(CCc7ccccc7)c(c2c36)C1=O)c54 (stereo not shown) [Compound 6]", "E^−1/2": "−1.13^"}
{"COMPOUND": "CCCCCCCCN1C(=O)c2cc(CCc3ccccc3)c3c4c(c(CCc5ccccc5)cc(c24)C1=O)C(=O)N(CCCCCCCC)C3=O [Compound 4]", "E^−1/2": "−0.61^"}
{"COMPOUND": "CCCCCCCCN1C(=O)c2c(CCc3ccccc3)cc3c4cc(CCc5ccccc5)c5c6c(c(CCc7ccccc7)cc(c7cc(CCc8ccccc8)c(c2c37)C1=O)c64)C(=O)N(CCCCCCCC)C5=O [Compound 8]", "E^−1/2": "−0.75^"}

----------
- ASSAY_COMMENT: Solubility in toluene
- Type: physicochemical
- CONDITION_LABEL: organic solvent or mixture

{"MOLECULE": "CCCCC(CC)CN1C(=O)c2ccc3c4cccc5cccc(c6ccc(c2c36)C1=O)c54 (stereo not shown) [Compound 5]", "DISPLAY_UNIT": "µg/mL", "solubility": 2000}
{"MOLECULE": "CCCCC(CC)CN1C(=O)c2c(CCc3ccccc3)cc3c4ccc5c6cc(CCc7ccccc7)c7c8c(c(CCc9ccccc9)cc(c9ccc(c%10cc(CCc%11ccccc%11)c(c2c3%10)C1=O)c4c59)c86)C(=O)N(CC(CC)CCCC)C7=O (stereo not shown) [Compound 10]", "DISPLAY_UNIT": "µg/mL", "solubility": 3000}
{"MOLECULE": "CCCCCCCCN1C(=O)c2c(CCc3ccccc3)cc3c4cc(CCc5ccccc5)c5c6c(c(CCc7ccccc7)cc(c7cc(CCc8ccccc8)c(c2c37)C1=O)c64)C(=O)N(CCCCCCCC)C5=O [Compound 8]", "DISPLAY_UNIT": "µg/mL", "solubility": 2000}
{"MOLECULE": "CCCCC(CC)CN1C(=O)c2c(CCc3ccccc3)cc3c4cccc5cccc(c6cc(CCc7ccccc7)c(c2c36)C1=O)c54 (stereo not shown) [Compound 6]", "DISPLAY_UNIT": "µg/mL", "solubility": 6000}

----------
- ASSAY_COMMENT: Electrochemistry (redox potentials)
- Assay type: physicochemical
- CONDITION_LABEL: oxidation potential; dichloromethane, 0.1 M TBAPF6; Fc/Fc+ (0.46 V vs. SCE) internal standard
Each item that follows carries a reported E^+1/2.

{"COMPOUND": "CCCCC(CC)CN1C(=O)c2c(CCc3ccccc3)cc3c4ccc5c6cc(CCc7ccccc7)c7c8c(c(CCc9ccccc9)cc(c9ccc(c%10cc(CCc%11ccccc%11)c(c2c3%10)C1=O)c4c59)c86)C(=O)N(CC(CC)CCCC)C7=O (stereo not shown)", "E^+1/2 (V)": 1.1}
{"COMPOUND": "CCCCC(CC)CN1C(=O)c2c(CCc3ccccc3)cc3c4cccc5cccc(c6cc(CCc7ccccc7)c(c2c36)C1=O)c54 (stereo not shown)", "E^+1/2 (V)": 1.37}
{"COMPOUND": "CCCCCCCCN1C(=O)c2c(CCc3ccccc3)cc3c4cc(CCc5ccccc5)c5c6c(c(CCc7ccccc7)cc(c7cc(CCc8ccccc8)c(c2c37)C1=O)c64)C(=O)N(CCCCCCCC)C5=O", "E^+1/2 (V)": 1.63}
{"COMPOUND": "CCCCC(CC)CN1C(=O)c2ccc3c4cccc5cccc(c6ccc(c2c36)C1=O)c54 (stereo not shown)", "E^+1/2 (V)": 1.41}
